Below: a set of entries, each annotated with reported MIC.
Test system: Curvularia lunata
PROCEDURE_TEXT: Antimicrobial activity against Curvularia lunata NCIM 716 after 48 hrs by microdilution susceptibility method
Type: functional
COND: NCIM 716, 48 h
A number alone suffices; assume µg/mL.

O=S(=O)(Cc1nnc(CS(=O)(=O)c2ccc(Cl)cc2)s1)Nc1ccc(Cl)cc1
50
CC(=O)N1CCN(c2ccc(OCC3COC(Cn4ccnc4)(c4ccc(Cl)cc4Cl)O3)cc2)CC1 (stereo not given)
6.25
Cc1ccc(NS(=O)(=O)Cc2nnc(CS(=O)(=O)c3ccc(C)cc3)s2)cc1
100
O=S(=O)(Cc1nnc(CS(=O)(=O)c2ccccc2)s1)Nc1ccccc1
100

# evaluate next
Measured MIC for this entry O=S(=O)(Cc1nnc(-c2ccc(Cl)cc2)s1)Nc1ccc(Cl)cc1 on Curvularia lunata: 100
